Please respond with reported EC80 MIN for every item in the list.
Target: human M5 receptors (hM5) (Homo sapiens, UniProt P08912)
Construct: expressed in transfected cells
Sequence (P08912 1-532): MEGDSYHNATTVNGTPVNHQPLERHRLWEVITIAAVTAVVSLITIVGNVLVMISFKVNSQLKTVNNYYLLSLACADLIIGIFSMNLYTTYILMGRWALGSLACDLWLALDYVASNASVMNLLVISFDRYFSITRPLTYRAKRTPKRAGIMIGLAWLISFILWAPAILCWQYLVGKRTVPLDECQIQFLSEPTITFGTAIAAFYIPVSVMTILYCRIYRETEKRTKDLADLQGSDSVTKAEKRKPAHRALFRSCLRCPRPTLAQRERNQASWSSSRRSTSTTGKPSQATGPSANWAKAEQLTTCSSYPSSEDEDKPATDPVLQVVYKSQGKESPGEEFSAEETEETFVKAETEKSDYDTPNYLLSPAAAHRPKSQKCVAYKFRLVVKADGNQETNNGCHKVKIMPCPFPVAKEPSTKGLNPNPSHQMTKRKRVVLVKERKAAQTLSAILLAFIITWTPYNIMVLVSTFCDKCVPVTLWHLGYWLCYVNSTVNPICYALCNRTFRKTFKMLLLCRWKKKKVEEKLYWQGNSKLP
Assay: Cell-based functional calcium mobilization assay of mAChR M5 activity (inhibition of EC80 acetylcholine response) in CHO cells
Conditions: CHO cells stably expressing hM5; minimum of EC80 acetylcholine response, normalized to maximum acetylcholine response
Number in %, nothing else.

Query: Lab note: need EC80 MIN for O=C(Nc1ccc2scnc2c1)[C@H]1CCN(S(=O)(=O)c2ccc3c(c2)CCO3)C[C@@H]1F (racemic) on human M5 receptors (hM5) (Homo sapiens, UniProt P08912), anyone have it?
Reply: 2

Query: Lab note: need EC80 MIN for O=C(Nc1ccc2scnc2c1)C1CCN(S(=O)(=O)c2cc3c(cc2F)OCC3)CC1(F)F (stereo not shown) on human M5 receptors (hM5) (Homo sapiens, UniProt P08912), anyone have it?
Reply: 2

Query: Lab note: need EC80 MIN for COc1ccc(S(=O)(=O)N2CCC(C(=O)Nc3ccc4scnc4c3)CC2)cn1 on human M5 receptors (hM5) (Homo sapiens, UniProt P08912), anyone have it?
Reply: 3

Query: Lab note: need EC80 MIN for Cc1nc2ccc(S(=O)(=O)N3CCC(C(=O)Nc4ccc5scnc5c4)CC3)cc2s1 on human M5 receptors (hM5) (Homo sapiens, UniProt P08912), anyone have it?
Reply: 47

Query: Lab note: need EC80 MIN for O=C(Nc1ccc2scnc2c1)[C@H]1CCN(S(=O)(=O)c2ccc(Cl)nc2)C[C@@H]1F (racemic) on human M5 receptors (hM5) (Homo sapiens, UniProt P08912), anyone have it?
Reply: 2

Query: Lab note: need EC80 MIN for O=C(Nc1ccc2scnc2c1)[C@H]1CCN(S(=O)(=O)c2cc3c(cc2F)OCC3)C1 on human M5 receptors (hM5) (Homo sapiens, UniProt P08912), anyone have it?
Reply: 2

Query: Lab note: need EC80 MIN for O=C(Nc1ccc2scnc2c1)[C@H]1CCN(S(=O)(=O)c2ccc(Cl)nc2)C[C@H]1F (racemic) on human M5 receptors (hM5) (Homo sapiens, UniProt P08912), anyone have it?
Reply: 20

Query: Lab note: need EC80 MIN for CC1COc2ccc(S(=O)(=O)N3CCC(C(=O)Nc4ccc5scnc5c4)CC3)cc21 (racemic) on human M5 receptors (hM5) (Homo sapiens, UniProt P08912), anyone have it?
Reply: 3

Query: Lab note: need EC80 MIN for Cc1nn(C)cc1S(=O)(=O)N1CC[C@H](C(=O)Nc2ccc3scnc3c2)[C@H](F)C1 (racemic) on human M5 receptors (hM5) (Homo sapiens, UniProt P08912), anyone have it?
Reply: 45

Query: Lab note: need EC80 MIN for Cc1nn(C)cc1S(=O)(=O)N1CCC(C(=O)Nc2ccc3scnc3c2)CC1 on human M5 receptors (hM5) (Homo sapiens, UniProt P08912), anyone have it?
Reply: 2

Query: Lab note: need EC80 MIN for Cn1cnc2cc(S(=O)(=O)N3CCC(C(=O)Nc4ccc5scnc5c4)CC3)ccc21 on human M5 receptors (hM5) (Homo sapiens, UniProt P08912), anyone have it?
Reply: 42

Query: Lab note: need EC80 MIN for O=C(Nc1ccc2scnc2c1)[C@H]1CCN(S(=O)(=O)c2cccnc2)C[C@@H]1F (racemic) on human M5 receptors (hM5) (Homo sapiens, UniProt P08912), anyone have it?
Reply: 2

Query: Lab note: need EC80 MIN for O=C(Nc1ccc2scnc2c1)C1CCN(S(=O)(=O)c2ccc3c(c2)CCO3)CC1 on human M5 receptors (hM5) (Homo sapiens, UniProt P08912), anyone have it?
Reply: 2

Query: Lab note: need EC80 MIN for O=C(Nc1ccc2scnc2c1)C1CCN(S(=O)(=O)c2ccc(F)cc2)CC1 on human M5 receptors (hM5) (Homo sapiens, UniProt P08912), anyone have it?
Reply: 7

Query: Lab note: need EC80 MIN for Cc1ccccc1S(=O)(=O)N1CCC(C(=O)Nc2ccc3scnc3c2)CC1 on human M5 receptors (hM5) (Homo sapiens, UniProt P08912), anyone have it?
Reply: 6

Query: Lab note: need EC80 MIN for COc1ccc(S(=O)(=O)N2CCC(C(=O)Nc3ccc4scnc4c3)CC2)c(C)c1 on human M5 receptors (hM5) (Homo sapiens, UniProt P08912), anyone have it?
Reply: 22

Every entry's value here was drawn from patent US20230303552A1.
